Attribution: patent US20260258115A1

Answer each item with its documented pKd.
TARGET_UNDER_TEST: RSV prefusion F (preF), subtype B (respiratory syncytial virus, subtype B)
MEASUREMENT_PROTOCOL: BLI, IgG
Give bare numbers, as −log10 of the molar value.

BINDER	pKd
ADI-21004 (antibody, V domains shown) VH: QVQLQESGGGVVQPGRSLTLSCAASGFTFSSYGMHWVRQAPGKGLDWVAEIWYDGSNKYYVDSVKGRFTISRDNSKNTLYLQMKSLRAEDTAIYYCARDGGYESPFFDKWGQGTLVTVSS VL: EIVMTQSPDSLGVSLGERATINCKSSQSLYTSNHENSLAWYQQKPGQPPRLLIYWASTRELGVPDRFSGSGSGTDFTLTISSLQAEDVAVYYCQQYHTTPLTFGPGTKVEIK	7.99

Here is the next item to consider.
If you can, please state the reported pKd value of ADI-20970 (antibody, V domains shown) VH: EVQLLESGGGLVKPGGSLRLSCAVSGFSFSNAWMSWVRQAPGKGLEWVGRIRSKTDGGTTDYAAPVKGRFTISRDDSKNTLYLQMNSLKTEDTAVYYCTTAPRYSTSWYPGYYYYYYMDVWGKGTTVTVSS VL: DIQMTQSPSSLSASVGDRVTITCQASQDINFYLNWYQQKPGKAPKLLIYDASNLETGVPSRFSGSVSGTDFTFTISSLQPEDFATYYCQQYDDLPAFGGGTKVEIK .
8.59
